FYI, the data here is from patent US5686486A.

# Ki per entry
- targetDesc: HIV-1 protease (Human immunodeficiency virus type 1 group M subtype B, UniProt P04585)
- measurementDescription: biochemical
- experimentalConditions: read-out: HIV-1 FITC KI
Your answer should be a plain number; it is taken to be in nM.

Before answering, review these 3 worked examples.
Which measured Ki value corresponds to O=c1oc2c(c(O)c1C(c1cccc(NS(=O)(=O)c3cccc(S(=O)(=O)NCc4ccccc4)c3)c1)C1CC1)CCCCCC2 (stereo not drawn) ? 9.2

Which measured Ki value corresponds to CCC1CCCCCc2c1oc(=O)c(C(c1ccccc1)C1CC1)c2O (stereo not drawn) ? 33

Which measured Ki value corresponds to O=c1oc2c(c(O)c1C(c1cccc(NS(=O)(=O)c3ccc(N=Nc4ccccc4)cc3)c1)C1CC1)CCCCCC2 (stereo not drawn) ? 3.1

Further cases:
Which measured Ki value corresponds to O=c1oc2c(c(O)c1C(c1cccc(NS(=O)(=O)c3cc(Cl)c(Cl)s3)c1)C1CC1)CCCCCC2 (stereo not drawn) ? 2.7

Which measured Ki value corresponds to O=c1oc2c(c(O)c1C(c1cccc(NS(=O)(=O)c3cccc(CO)c3)c1)C1CC1)CCCCCC2 (stereo not drawn) ? 1.32

Which measured Ki value corresponds to O=c1oc2c(c(O)c1C(c1ccccc1)C1CC1)CCCCCC2CC1CCCO1 (single isomer, unassigned) [Example 171] ? 23

---

- targetDesc: HIV-1 protease (Human immunodeficiency virus type 1 group M subtype B)
- measurementDescription: biochemical
- experimentalConditions: read-out: HIV-1 Protease % Inhib, dose 1.230 uM
property: inhibition at 1.23 µM

Before answering, review these 5 worked examples.
Which measured inhibition at 1.23 µM value corresponds to COc1ccc2c(O)c(C(c3cccc(NC(=O)OCc4ccccc4)c3)C3CC3)c(=O)oc2c1 (stereo not drawn) [Example 166] ? 13.2%

Which measured inhibition at 1.23 µM value corresponds to O=c1oc2ccccc2c(O)c1C(CCO)c1ccccc1 (stereo not drawn) [Example 160] ? < 10%

Which measured inhibition at 1.23 µM value corresponds to CC(C)N=C(Nc1cccc(C(c2c(O)c3c(oc2=O)CCCCCC3)C2CC2)c1)NC(C)C (stereo not drawn) [Example 120] ? 22.2%

Which measured inhibition at 1.23 µM value corresponds to CC(C)(C)C(c1ccccc1)c1c(O)c2ccccc2oc1=O (stereo not drawn) [Example 152] ? 14.2%

Which measured inhibition at 1.23 µM value corresponds to O=c1oc2c(c(O)c1C(c1ccccc1)C1CC1)CCCCC2CC1CC1 (stereo not drawn) [Example 125] ? 108%

Further cases:
Which measured inhibition at 1.23 µM value corresponds to O=c1oc2c(c(O)c1C(Cc1ccccc1)Cc1ccccc1)CCCCCC2 [Example 136] ? 80.1%

Which measured inhibition at 1.23 µM value corresponds to COc1ccc2c(O)c(C(c3cccc(NC(=O)CCNC(=O)OC(C)(C)C)c3)C3CC3)c(=O)oc2c1 (stereo not drawn) [Example 167] ? 99.5%

Which measured inhibition at 1.23 µM value corresponds to O=C(Nc1cccc(C(c2c(O)c3c(oc2=O)CCCCCC3)C2CC2)c1)OCc1ccccc1 (stereo not drawn) [Example 119] ? 55.4%

Which measured inhibition at 1.23 µM value corresponds to O=c1oc2c(c(O)c1C(C1CC1)C1CC1)CCCCCC2 [Example 118] ? 87.9%

---

- targetDesc: HIV-1 protease (Human immunodeficiency virus type 1 group M subtype B)
- measurementDescription: biochemical
- experimentalConditions: read-out: HIV-1 Protease % Inhib, dose 3.300 uM
# inhibition at 3.3 µM per entry
Your answer should be a plain number; it is taken to be in %.

Before answering, review these 4 worked examples.
Which measured inhibition at 3.3 µM value corresponds to O=c1oc2c(c(O)c1[C@H](c1cccc(NS(=O)(=O)c3ccc(F)cc3)c1)C1CC1)CCCCCC2 [Example 252] ? 112

Which measured inhibition at 3.3 µM value corresponds to O=c1oc2c(c(O)c1C(c1cccc(NS(=O)(=O)c3ccc(C(F)(F)F)cc3)c1)C1CC1)CCCCCC2 (stereo not shown) [Example 267] ? 107

Which measured inhibition at 3.3 µM value corresponds to O=c1oc2c(c(O)c1C(c1cccc(NS(=O)(=O)c3ccc(Cl)cc3)c1)C1CC1)CCCCCC2 (stereo not shown) [Example 264] ? 104

Which measured inhibition at 3.3 µM value corresponds to Cc1noc(C)c1S(=O)(=O)Nc1cccc(C(c2c(O)c3c(oc2=O)CCCCCC3)C2CC2)c1 (stereo not shown) [Example 338] ? 96.8

Further cases:
Which measured inhibition at 3.3 µM value corresponds to O=c1oc2c(c(O)c1C(c1cccc(NS(=O)(=O)c3cccc(Cl)c3)c1)C1CC1)CCCCCC2 (stereo not shown) [Example 289] ? 97.3

Which measured inhibition at 3.3 µM value corresponds to O=c1oc2c(c(O)c1C(c1cccc(NS(=O)(=O)c3ccc(CBr)cc3)c1)C1CC1)CCCCCC2 (stereo not shown) [Example 403] ? 94.8

Which measured inhibition at 3.3 µM value corresponds to Cc1ccccc1S(=O)(=O)Nc1cccc(C(c2c(O)c3c(oc2=O)CCCCCC3)C2CC2)c1 (stereo not shown) [Example 330] ? 109

---

- targetDesc: HIV-1 protease (Human immunodeficiency virus type 1 group M subtype B)
- measurementDescription: biochemical
- experimentalConditions: read-out: HIV-1 Protease % Inhib, dose 3.700 uM
Label F if inhibition at 3.7 µM falls below 90%; label T in every other case.

Below are worked cases with known answers.
inhibition at 3.7 µM >= 90% for O=c1oc2ccccc2c(O)c1C(CCO)c1ccccc1 (stereo not drawn) [Example 160] ? F

inhibition at 3.7 µM >= 90% for O=c1oc2c(c(O)c1C(c1ccccc1)C1CC1)CCCCCCC2 (stereo not drawn) [Example 117] ? T

inhibition at 3.7 µM >= 90% for O=c1oc2c(c(O)c1C(C1CC1)C1CC1)CCCCCC2 [Example 118] ? T

inhibition at 3.7 µM >= 90% for CCC(c1ccccc1)c1c(O)c2c(oc1=O)C(CC1CC1)CCC2 (stereo not drawn) [Example 124] ? F

inhibition at 3.7 µM >= 90% for COc1ccc2c(O)c(C(c3cccc(NC(=O)CCNC(=O)OC(C)(C)C)c3)C3CC3)c(=O)oc2c1 (stereo not drawn) [Example 167] ? T

Further cases:
inhibition at 3.7 µM >= 90% for CC(C)(C)OC(=O)NCCC(=O)Nc1cccc(C(c2c(O)c3ccccc3oc2=O)C2CC2)c1 (stereo not drawn) [Example 165] ? T

inhibition at 3.7 µM >= 90% for CCC(c1cccc(NS(=O)(=O)CCNC(=O)OC(C)(C)C)c1)c1c(O)c2ccccc2oc1=O (stereo not drawn) [Example 140] ? F

inhibition at 3.7 µM >= 90% for C=CCCC1CCCCc2c1oc(=O)c(C(c1ccccc1)C1CC1)c2O (stereo not drawn) [Example 135] ? T

inhibition at 3.7 µM >= 90% for O=C(Nc1cccc(C(c2c(O)c3c(oc2=O)CCCCCC3)C2CC2)c1)OCc1ccccc1 (stereo not drawn) [Example 119] ? F

inhibition at 3.7 µM >= 90% for COc1ccc2c(O)c(C(c3cccc(NC(=O)OCc4ccccc4)c3)C3CC3)c(=O)oc2c1 (stereo not drawn) [Example 166] ? F

---

- targetDesc: HIV-1 protease (Human immunodeficiency virus type 1 group M subtype B)
- measurementDescription: biochemical
- experimentalConditions: read-out: HIV-1 Protease % Inhib, dose 1.000 uM
property: inhibition at 1 µM (%)
Your answer should be a plain number; it is taken to be in %.

Which measured inhibition at 1 µM value corresponds to CC(Cc1c(O)c2ccccc2oc1=O)c1ccccc1 (stereo not drawn) [Example 5, 4-Hydroxy-3-(2-phenylpropyl)coumarin] ? 15.4

Which measured inhibition at 1 µM value corresponds to "O=c1oc2ccccc2c(O)c1C(Cc1ccccc1)Cc1ccccc1" ? 54.4

Which measured inhibition at 1 µM value corresponds to CCCC(Cc1ccccc1)c1c(O)c2ccccc2oc1=O (stereo not drawn) ? 34.7

Which measured inhibition at 1 µM value corresponds to CCC(c1ccccc1)c1c(O)c2ccc(OC(C)C)cc2oc1=O (stereo not drawn) ? 62

Which measured inhibition at 1 µM value corresponds to CCC(CCCc1ccccc1)c1c(O)c2ccccc2oc1=O (stereo not drawn) ? 17.1

Further cases:
Which measured inhibition at 1 µM value corresponds to CCOc1ccc2c(O)c(C(CC)c3ccccc3)c(=O)oc2c1 (stereo not drawn) ? 30.9

Which measured inhibition at 1 µM value corresponds to CCC(c1cccc(NC(=O)CCn2ccc3ccccc32)c1)c1c(O)c2ccccc2oc1=O (stereo not drawn) ? 77.6

Which measured inhibition at 1 µM value corresponds to CCC(c1cccc(NS(=O)(=O)CCN2C(=O)c3ccccc3C2=O)c1)c1c(O)c2ccccc2oc1=O (stereo not drawn) ? 36.6

---

- targetDesc: HIV-1 protease (Human immunodeficiency virus type 1 group M subtype B)
- measurementDescription: biochemical
- experimentalConditions: read-out: HIV-1 Protease % Inhib, dose 100.000 uM
Label not fulfilled if inhibition at 100 µM falls below 80%; label fulfilled in every other case.

Below are worked cases with known answers.
inhibition at 100 µM >= 80% for O=c1oc2ccccc2c(O)c1C1CCCCc2ccccc21 (stereo not shown) ? fulfilled

inhibition at 100 µM >= 80% for CCC(c1cccc(NC(=O)CCCNC(=O)OC(C)(C)C)c1)c1c(O)c2ccccc2oc1=O (stereo not shown) ? fulfilled

inhibition at 100 µM >= 80% for CCC(c1cccc(NC(=O)Cc2ccccc2)c1)c1c(O)c2ccccc2oc1=O (stereo not shown) ? not fulfilled

Further cases:
inhibition at 100 µM >= 80% for CCC(c1ccccc1)c1c(O)c2ccc(C(F)(F)F)cc2oc1=O (stereo not shown) ? fulfilled

inhibition at 100 µM >= 80% for CCC(c1cccc(OCC(O)CO)c1)c1c(O)c2ccccc2oc1=O (stereo not shown) ? not fulfilled

inhibition at 100 µM >= 80% for CCC(c1ccccc1)c1c(O)c2c(oc1=O)C(Cc1ccccc1)CCCCC2 (stereo not shown) ? fulfilled

inhibition at 100 µM >= 80% for COc1ccc2c(O)c(C(c3cccc(NC(=O)CCNC(=O)OC(C)(C)C)c3)C3CC3)c(=O)oc2c1 (stereo not shown) ? fulfilled
